biological target: T1, soluble mouse BLyS (mouse, UniProt Q9WU72 127-309); assay: Biacore
T1 construct: europium-labelled in DELFIA; also called mBLyS; mouse BAFF (BLyS)
observed-property: pKd
// field semantics: pKd = negative decimal log of concentration (mol/L)

Guide cases for pKd, answers given:
8A12 IgG expressed in HEK293 cells (antibody, V domains shown, IgG from HEK293-FreeStyle cells) VH: QVQLVQSGGGLVQPGGSLRLSCAASGFTFSSYAMSWVRQAPGKGLEWVSAISGSGGSTYYADSVKGRFTISRDNSKNTLYLQMNSLRAEDTAVYYCAREGQGYDILTGYYTRGYYFDYWGQGTLVTVSS VL: QSALTQPASVSGSPGQSITISCTGTSSDVGGYNYVSWYQQLPGKAPKLMIYEVSKRPSGVPDRFSGSKSGNTASLTISGLQAEDEADYYCSSYAGSSSWVFGGGTKLTVLG : 10.65
6C10 IgG expressed in HEK293 cells (antibody, V domains shown, IgG from HEK293-FreeStyle cells; also called 6C10 (293)) VH: EVQLVQSGAEVKKPGASVKVSCKASGYTFTSYGISWVRQAPGQGLEWMGWISAYNGNTNYAQKLQGRVTMTTDTSTSTAYMELRSLRSDDTAVYYCARTYYDILTGYYYYYGMDVWGQGTTVTVSS VL: EIVLTQSPGTLSLSPGERAMLSCRASQSVGNYLAWYQQKPGQAPRLLIYDASNRATGIPARFSGSGSGTDFTLTINSLEPEDFAVYYCQQRSNWPLTFGGGTKVEIKR : 10.67
5B7 IgG expressed in HEK293 cells (antibody, V domains shown, also called 5B7 (293); 5B7-HEK293) VH: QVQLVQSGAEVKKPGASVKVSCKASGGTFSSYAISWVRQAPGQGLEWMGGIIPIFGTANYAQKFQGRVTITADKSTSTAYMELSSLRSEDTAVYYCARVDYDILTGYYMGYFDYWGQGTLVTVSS VL: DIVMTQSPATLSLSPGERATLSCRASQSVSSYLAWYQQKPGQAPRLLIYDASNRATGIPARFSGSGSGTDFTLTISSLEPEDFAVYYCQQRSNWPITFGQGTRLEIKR : 10.84
9F8 IgG expressed in HEK293 cells (antibody, V domains shown, IgG from HEK293-FreeStyle cells) VH: QVQLQQSGAEVKKPGASVKVSCKASGYTFTSYYMHWVRQAPGQGLEWMGWINAGNGNTKYSQKFQGRVTITRDTSASTAYMELSSLRSEDTAVYYCARDNLSYDILTGYSFGGWFDPWGQGTLVTVSS VL: QSALTQPASVSGSPGQSITISCTGTSSDIGRYNYVSWYQQRPGRAPKVIIYDVSSRPSGVSKRFSASKSGNTASLTISGLQAEDEAVYYCSSYTRITTLYVFGPGTKVTVLG : 10.34
4A2 IgG expressed in HEK293 cells (antibody, V domains shown, IgG from HEK293-FreeStyle cells) VH: QVQLVQSGGGVVQPGRSLRLSCAASGFTFSSYGMHWVRQAPGKGLEWVAVISHDGSNKYYADSVKGRFTISRDNSKNTLYLQMNSLRAEDTAVYYCAKDRSYYDILTGYYIPYYYGMDVWGQGTTVTVSS VL: QAVLTQPPSASGTPGQKVTISCSGSSSDIGSNNVNWYQQFPGTAPKLLIHSNNLRPSGVPVRFSGSKSGTSASLAISGLQSEDEADYYCSAWDDSVNGVAFGGGTKLTVLG : 10.31

Now look at this entry.
In: I'd like to know its pKd. The binder in question is 8D12 IgG expressed in HEK293 cells (antibody, V domains shown, IgG from HEK293-FreeStyle cells; also called 8D12 (293)) VH: QVQLVQSGAEVKKPGASVKVSCKASGYTFTSYAMHWVRQAPGQRLEWMGWINAGNGNTKYSQKFQGRVTITRDTSASTAYMELSSLRSEDTAVYYCARAYYDILTGYSVYGMDVWGQGTTVTVSS VL: EIVLTQSPATLSLSPGERATLSCRANESVGNYLAWYQQKPGQAPRLLIYGASRRATGIPDRFSGSGSGTDFTLTISRLEPEDFAVYYCQQYGSSLLTFGGGTKVEIKR
Out: 10.55
